Biological target: T1, hRARα/mRXRα LBD heterodimer (human | mouse, UniProt P10276 153-421; P28700 228-467)
T1 construct: Heterodimer formed beforehand; small-molecule ligands (atRA, LG100754, AM580, BMS614, BMS649, 9-cisRA, HX531) differ between experiments and are named in the assays; also called RARα/RXRα LBD; RAR/RXR; not shown: His6, N-terminal, kept; copies: 1 + 1
T1 sequence (looked up) 1: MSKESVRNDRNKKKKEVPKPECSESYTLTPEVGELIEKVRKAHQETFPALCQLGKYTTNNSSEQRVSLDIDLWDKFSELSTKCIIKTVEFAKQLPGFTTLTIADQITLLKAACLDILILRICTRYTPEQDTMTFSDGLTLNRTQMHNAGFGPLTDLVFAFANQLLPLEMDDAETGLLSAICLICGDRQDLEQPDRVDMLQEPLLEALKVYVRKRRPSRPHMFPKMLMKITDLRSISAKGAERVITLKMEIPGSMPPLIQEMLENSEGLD
T1 sequence (looked up) 2: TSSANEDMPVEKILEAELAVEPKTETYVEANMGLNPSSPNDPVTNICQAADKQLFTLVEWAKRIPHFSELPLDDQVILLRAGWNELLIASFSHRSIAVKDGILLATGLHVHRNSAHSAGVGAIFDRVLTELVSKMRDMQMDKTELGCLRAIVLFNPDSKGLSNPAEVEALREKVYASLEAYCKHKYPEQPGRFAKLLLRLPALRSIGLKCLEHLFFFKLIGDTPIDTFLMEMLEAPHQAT
Experiment: fluorescence polarisation; fluorescence anisotropy; hRARα/mRXRα LBDs added to a fixed concentration of TAMRA-SRC-1 NR2 peptide; 20°C; 10 mM TRIS-HCl pH 7.5, 150 mM NaCl, 10 mM DTT; apparent; RAR apo, RXR ligand LG100754
Settings: both partners purified
pKd: −log10 of the molar value. No end group written: not given here.

binder: RHKILHRLLQEGS (also: TAMRA label, position not given here, also called (TAMRA) – SRC-1 NR2 peptide; source: bought: Neosystem (Strasbourg, France)) [TAMRA-labeled SRC-1 NR2 peptide (686-RHKILHRLLQEGS-698)]
pKd: 5.60

Provenance of the data: paper PMC2994906
